These measurements were taken from PubChem BioAssay.

- Method: small-molecule microarray binders of probe aXIP, primary screen, biochemical, NeuroSMM set, 635/667 nm fluorescence (AID 1119);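 also: probe is the protein aXip251-270 applied at 1 µg/mL to compound-printed slides; binding of probe to printed compounds measured as 667 nm fluorescence plus signal to noise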
- Test Conditions: higher = more signal, called active from +8 up or from −8 down
Decide by composite Z-score: equal to or exceeding 0.2 means Yes, less means No.

Does composite Z-score meet or surpass 0.2 for COc1ccc(COC(=O)NN=C2C[C@@H](O)[C@@H](O)[C@@H]3[C@@H]4C(=O)N(C(C)(C)C)C(=O)[C@@H]4CC[C@H]23)cc1 ?
Yes

Does composite Z-score meet or surpass 0.2 for CCOC(=O)CCN1C(=O)[C@H]2[C@H]3[C@H](O)[C@H](O)CC(=NNC(=O)OCC)[C@@H]3CC[C@H]2C1=O ?
No

Does composite Z-score meet or surpass 0.2 for CCOC(=O)NN=C1C[C@@H](O)[C@@H](O)[C@@H]2[C@@H]3C(=O)N(Cc4ccccc4)C(=O)[C@@H]3CC[C@@H]12 ?
No

Does composite Z-score meet or surpass 0.2 for C[C@@H](c1ccccc1)N1C(=O)[C@H]2[C@H]3[C@H](O)[C@H](O)CC(=O)[C@@H]3CC[C@H]2C1=O ?
Yes

Does composite Z-score meet or surpass 0.2 for O=C(NN=C1C[C@@H](O)[C@@H](O)[C@@H]2[C@@H]3C(=O)N(Cc4ccc5c(c4)OCO5)C(=O)[C@@H]3CC[C@H]12)OCc1ccccc1 ?
No

Does composite Z-score meet or surpass 0.2 for CC(C)CCN1CCc2nc(-c3ccccc3)c3c(c2C1)CO[C@@H](C)C3 ?
No

Does composite Z-score meet or surpass 0.2 for CC(C)=NO[C@@H](C)c1cc(-c2c(C)cc(C)cc2C)no1 ?
Yes
